B1: TSN (parent)
chain: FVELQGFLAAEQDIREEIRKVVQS

Variants of: B1
Experiment Summary: protein stability index of a GFP-peptide fusion (GPS, HEK-293T) (PSI 1-6); higher = more stable;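 note: lentivirally expressed fusions sorted by FACS into six bins by GFP to DsRed ratio, PSI derived from sequencing read proportions per bin multiplied by bin number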
Particulars: c terminus: a fixed tail appended
In this section we review reported protein stability index values for a set of variants.
Number only, please.

INSERT INTO measurements (mutation_list, measured_result) VALUES
  ('Q23W', 1.65);

Return reported protein stability index; argument: `E16S`
1.18

Recorded protein stability index of `V2W` , please.
1.33

May I ask what protein stability index has been recorded for `A10M` ?
2.2

Entry `Q23D` : reported protein stability index = ?
3.47

Form field: reported protein stability index of `K20H`
1.94

Recorded protein stability index of `I14Y` , please.
1.23

Quick one: protein stability index of `V22R` ?
1.7

Can you look up the measured protein stability index of `I14T` for me?
2.01

So what does the record say about protein stability index for `L4T` ?
3.35

I'd like to know its protein stability index. The variant in question is `E17G`
2.42
